# tested.system: HDAC7 (Homo sapiens)
# Construct: purchased BPS Bioscience
# Sequence (Q8WUI4 1-952): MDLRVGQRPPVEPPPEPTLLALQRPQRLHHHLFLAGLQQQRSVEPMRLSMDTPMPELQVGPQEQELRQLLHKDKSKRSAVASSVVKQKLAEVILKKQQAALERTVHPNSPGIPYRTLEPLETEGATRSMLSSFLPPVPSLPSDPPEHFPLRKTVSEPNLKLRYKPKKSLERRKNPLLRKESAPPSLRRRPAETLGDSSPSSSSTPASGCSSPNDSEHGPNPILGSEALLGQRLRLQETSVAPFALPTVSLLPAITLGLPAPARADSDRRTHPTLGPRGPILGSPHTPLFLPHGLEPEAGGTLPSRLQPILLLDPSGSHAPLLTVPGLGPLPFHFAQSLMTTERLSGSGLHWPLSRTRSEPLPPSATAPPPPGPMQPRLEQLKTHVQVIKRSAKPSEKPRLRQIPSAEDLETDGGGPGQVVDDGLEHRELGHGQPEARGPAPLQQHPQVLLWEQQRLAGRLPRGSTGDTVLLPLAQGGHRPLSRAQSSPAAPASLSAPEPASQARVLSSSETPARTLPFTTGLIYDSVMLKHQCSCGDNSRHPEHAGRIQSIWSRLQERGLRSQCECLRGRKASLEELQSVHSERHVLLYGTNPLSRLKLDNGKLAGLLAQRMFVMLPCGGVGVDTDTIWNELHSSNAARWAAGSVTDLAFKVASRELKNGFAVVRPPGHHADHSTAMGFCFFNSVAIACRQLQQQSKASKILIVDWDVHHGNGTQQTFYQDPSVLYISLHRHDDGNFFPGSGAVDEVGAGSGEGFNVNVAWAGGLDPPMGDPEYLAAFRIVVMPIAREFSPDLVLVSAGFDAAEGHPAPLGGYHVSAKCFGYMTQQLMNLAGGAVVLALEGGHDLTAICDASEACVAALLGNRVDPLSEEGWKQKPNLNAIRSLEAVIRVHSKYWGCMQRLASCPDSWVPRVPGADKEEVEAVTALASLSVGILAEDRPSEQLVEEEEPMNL
# protocol.description: HDAC isoform inhibition, microfluidic lab-on-a-chip (Caliper) assay
# Type: biochemical
# conditions.used: HDAC isoform 7; 2 μM FAM-labeled acetylated peptide substrate, 60 min, room temperature
property: IC50 (µM)

In [3]: df
Out[3]:
                                   molecule         tested_system  property  qualifier_sign  observed_measurement
0  Cc1ccc(S(=O)(=O)N2CC=C(C(=O)NO)CC2)cc1 [Compound 31A]  HDAC7 (Homo sapiens)      IC50               =                  11.6
1        CN1CCC=C(C(=O)NO)C1 [Compound 30A]  HDAC7 (Homo sapiens)      IC50               >                    33
2           O=C(NO)C1=CCOCC1 [Compound 20A]  HDAC7 (Homo sapiens)      IC50               =                  26.8
3  O=C(NO)C1=CC(Sc2ccccc2)CCC1 (stereo not shown) [Compound 10A]  HDAC7 (Homo sapiens)      IC50               =                  6.91
4  COc1ccc(CNC2C=C(C(=O)NO)CCC2)cc1 (stereo not shown) [Compound 7A]  HDAC7 (Homo sapiens)      IC50               >                    33
5  COc1ccc(C(=O)N2CCC=C(C(=O)NO)C2)cc1 [Compound 12A]  HDAC7 (Homo sapiens)      IC50               >                    33
6   CC1=C(C(=O)NO)Cc2ccccc21 [Compound 29A]  HDAC7 (Homo sapiens)      IC50               =                  17.9
7  O=C(NO)C1=CCCCC1 [Compound 19A, N-Hydroxycyclohex-1-Enecarboxamide]  HDAC7 (Homo sapiens)      IC50               =                  2.32
8     O=C(NO)C1=Cc2ccccc2CC1 [Compound 32A]  HDAC7 (Homo sapiens)      IC50               =                  2.46
9  O=C(NO)C1=C[C@@H](O)[C@@H](O)[C@H](O)C1 [Compound 22A]  HDAC7 (Homo sapiens)      IC50               >                    33
